For each of the binders below, state its PEC50 hGLPR1.
# STUDY_TARGET: human GLP-1 receptor (hGLP1R) (human, UniProt P43220 24-463)
# EXPERIMENT_NOTES: cell-based or functional assay
Numbered stars: 1 amine (or outer) side, 2 acyl side, 3 side chain; on linkers, the order of the positions; unused ones are H or OH. Square brackets hold non-standard residues; d marks the D form. Side chains are listed from the residue outwards. Ends that are not written are not given here. * marks the point of attachment. C20 diacid = O=C(O)CCCCCCCCCCCCCCCCCCC(=O)*; C18 diacid = O=C(O)CCCCCCCCCCCCCCCCC(=O)*; γGlu = O=C(O)[C@H](CCC(=O)[*:2])N[*:1]; AEEA = NCCOCCOCC(=O)O; Aib = CC(C)(N)C(=O)O

QUERY: Give its PEC50 hGLPR1 value. Item: H[Aib]EGTFTSDVSRLK([AEEA-AEEA-γGlu-C20 diacid])EEAALQRFLEHLVEAA-NH2 [SEQ ID NO: 207]
RESULT: 11 -log M

QUERY: Give its PEC50 hGLPR1 value. Item: H[Aib]EGTFTSDVSRLK([AEEA-AEEA-γGlu-C18 diacid])EGAAEQRFLQHLVAAE-NH2 [SEQ ID NO: 206]
RESULT: 10.8 -log M

QUERY: Give its PEC50 hGLPR1 value. Item: H[Aib]EGTFTSDVSTLK([AEEA-AEEA-γGlu-C20 diacid])EEA[Aib]LQRFLEHLVEAA-NH2 [SEQ ID NO: 211]
RESULT: 11.2 -log M

QUERY: Give its PEC50 hGLPR1 value. Item: H[Aib]EGTFTSDVSRLK([AEEA-AEEA-γGlu-C18 diacid])EGAAEQRFLQHLVEAA-NH2 [SEQ ID NO: 205]
RESULT: 11.1 -log M

QUERY: Give its PEC50 hGLPR1 value. Item: H[Aib]EGTFTSDVSELK([AEEA-AEEA-γGlu-C20 diacid])EEA[Aib]LQRFLEHLVEAA-NH2 [SEQ ID NO: 210]
RESULT: 11 -log M
